Test: yeast display, Sf9 membrane polyspecificity reagent, FACS + sequencing; frameworks hold sequencing errors
READOUT LABEL: polyreactivity (PSR sort gate)

[
  {
    "ORDERED RESIDUES": "QVQLVESGGGLVQAGGSLRLSCAASGFTFYRNAMGWYRQAPGKEWELVAGITRSGGSTYYADSVKGRFTISRDNAKNTVYLQMNSLKPEDTAVYYCNKAYGGDKYSGTYDYWGQGTQVTVSS",
    "polyreactivity (PSR sort gate)": "high polyreactivity"
  },
  {
    "ORDERED RESIDUES": "QVQIVESGGGLVQAGGSLRLTCAASGSIFDVYTMGWYRQAPGKERELVAAISYSGGRTNYADSVKGRFTISRDNAKNTVYLQIYSLKPEDTAVYYCATTDGRTAWGVKDYYAKYNYWGQGTQVTVSS",
    "polyreactivity (PSR sort gate)": "low polyreactivity"
  },
  {
    "ORDERED RESIDUES": "QVQLVESGGGLVQAGGSLRLSCAASGIIFKSYVMGWYRQAPGKEREFVARITYRGGSTYYADSVKGRFTISRDNAKNTVYLQMNSLKPEDTAVYYCNKKNPQDLTENGYWGQGTQVTVSS",
    "polyreactivity (PSR sort gate)": "high polyreactivity"
  },
  {
    "ORDERED RESIDUES": "QVQLVDSGGGLVQAGGSLRLTFAASGSIFAWYAMGLYRQEPGKERELVAVITRGGSTNYADSVKGRFTISRDNAKNTVYLPMISQKPEDTAVYYCAAGSYYSWYPFDYWGQGTQLTVSS",
    "polyreactivity (PSR sort gate)": "low polyreactivity"
  },
  {
    "ORDERED RESIDUES": "QVQLVESGGGLVQAGGSLRLSCAASGSIFRSYAMGWYRQAPGKERELVAGITSSGGSTYADSVKGRFTISRDNAKNTVYLQMNSLKPEDTAVYFCAKPGFEWLLTRLFSVSEYDYWGQGTQVTVSS",
    "polyreactivity (PSR sort gate)": "low polyreactivity"
  },
  {
    "ORDERED RESIDUES": "QVQLVESGGGLVQEGGRLRLSCAASGITFRYYAMGWYRQAPGKERELVAAISWGGGSTYYADSVKGRFTISRDNATNTVYLQMNSLKPEDTAVYYCNARGSVRPYGPRATLDYWGQGTQVTVSS",
    "polyreactivity (PSR sort gate)": "high polyreactivity"
  }
]

Consider the sequence QVQLVESGGVLVQAGGSLRLSSAASGGTFWYYAMGMYRQEPGKERELVASISRGGSTNYADSVKGRFTISRDKAKHTVDLQMNRLKPEDTAVYYCIAGLRVGPRRYVDYEYDYWGQGSQVTVSS and give its measured polyreactivity (PSR sort gate).
low polyreactivity

Then what about the sequence QVQLVESGGGLVQAGGSLRLSCAASGSIFGGYTMGWYRPAPGKERELVAAITKNGGRTYYADSVKGRFTISRDTAKPTVYLQMNSLKPEDTAVYYCAAATSPSWYTWVTYDYWGQGTQVTVSS ?
high polyreactivity

Then what about the sequence QVQLVESGGGLVQAGGSLRLSCAATGRTFRPYAMGWYTQAPGKEREMVDAIDSSGTSTYYADSVKGRFTISRDNAKKTVYLQMNSQKPEDTAVYYCAKAWPDHWYSRYDYWGQGTQVTVSS ?
low polyreactivity

Then what about the sequence QVQLVESGGGLVQAGGSLRLSCAASGSIFYTYAMGWYRQAPGKERELVAAINWSGGRTYYADSVKGRFTISRDNAKNTVYLQMNSLTPEDTAVYSCAARRGRSWGGFDYWGQGTQVTVSS ?
low polyreactivity

Then what about the sequence QVQLVESGGGLVQAGGSLRLSCAASGLISIFYTMGWYRQAPGKERELVAAITSGGSSTYYADSVKGRFTISRDNAKNTVYLQMNCLIPVDTAVYYCAAEPGFYYYWGQGTQVTVSS ?
low polyreactivity

Values from the nanobody polyreactivity screen of Harvey et al. (2022)
